Test system: PBMC
Experiment: Anti-HIV-1 activity against PBMC cell lines
Type: functional, cell-based
Conditions: Homo sapiens
Consider the following compounds; for each one, report its IC50.
Numbers only, in µM.

compound: C[n+]1c(-c2cccc(C(=O)NCCC(=O)NC(CCCN=C(N)N)C(=O)O)c2)c2cc(N)ccc2c2ccc(N)cc21 (configuration not stated)
unit.of.measure: µM
value: 73

Consider the following items and state reported IC50 for each.
1. COC(=O)C(CCCN=C(N)N)NC(=O)CCNC(=O)c1cccc(-c2c3cc(N)ccc3c3ccc(N)cc3[n+]2C)c1 (configuration not stated)
2. COC(=O)C(CCCN=C(N)N)NC(=O)CCCCCNC(=O)c1cccc(-c2c3cc(N)ccc3c3ccc(N)cc3[n+]2C)c1 (configuration not stated)
3. C[n+]1c(-c2cccc(C(=O)NCCCCCC(=O)NCCC(=O)NC(CCCN=C(N)N)C(=O)O)c2)c2cc(N)ccc2c2ccc(N)cc21 (configuration not stated)
4. C[n+]1c(-c2cccc(C(=O)O)c2)c2cc(N)ccc2c2ccc(N)cc21
5. COC(=O)C(CCCN=C(N)N)NC(=O)CCNC(=O)CCCCCNC(=O)c1cccc(-c2c3cc(N)ccc3c3ccc(N)cc3[n+]2C)c1.[Cl-] (configuration not stated)

78
89
2.5
20
8.7

* * *

Test system: CEM-SS
Assay: Anti-HIV-1 activity against CEM-SS cell lines
Format: functional, cell-based
Conditions: Homo sapiens
Consider the following compounds; for each one, report its IC50.
Give bare numbers, in µM.

Consider the worked cases shown below.
compound: COC(=O)C(CCCN=C(N)N)NC(=O)CCNC(=O)CCCCCNC(=O)c1cccc(-c2c3cc(N)ccc3c3ccc(N)cc3[n+]2C)c1.[Cl-] (configuration not stated)
IC50 / µM: 4.6
//
compound: COC(=O)C(CCCN=C(N)N)NC(=O)CCNC(=O)c1cccc(-c2c3cc(N)ccc3c3ccc(N)cc3[n+]2C)c1 (configuration not stated)
IC50 / µM: 83
//
compound: C[n+]1c(-c2cccc(C(=O)O)c2)c2cc(N)ccc2c2ccc(N)cc21
IC50 / µM: 95

State measured IC50 of the compound C[n+]1c(-c2cccc(C(=O)NCCCCCC(=O)NCCC(=O)NC(CCCN=C(N)N)C(=O)O)c2)c2cc(N)ccc2c2ccc(N)cc21 (configuration not stated) with CEM-SS.
2.4

* * *

Test system: PBMC
Assay: Cytotoxicity towards uninfected PBMC cell lines
Assay type: functional
Conditions: Homo sapiens
experimental.endpoint: CC50

Consider the worked cases shown below.
compound: COC(=O)C(CCCN=C(N)N)NC(=O)CCNC(=O)c1cccc(-c2c3cc(N)ccc3c3ccc(N)cc3[n+]2C)c1 (configuration not stated)
CC50: 47 µM
//
compound: C[n+]1c(-c2cccc(C(=O)NCCC(=O)NC(CCCN=C(N)N)C(=O)O)c2)c2cc(N)ccc2c2ccc(N)cc21 (configuration not stated)
CC50: > 100 µM
//
compound: C[n+]1c(-c2cccc(C(=O)NCCCCCC(=O)NCCC(=O)NC(CCCN=C(N)N)C(=O)O)c2)c2cc(N)ccc2c2ccc(N)cc21 (configuration not stated)
CC50: > 100 µM
//
compound: COC(=O)C(CCCN=C(N)N)NC(=O)CCNC(=O)CCCCCNC(=O)c1cccc(-c2c3cc(N)ccc3c3ccc(N)cc3[n+]2C)c1.[Cl-] (configuration not stated)
CC50: > 100 µM

Consider the following items and state reported CC50 for each.
1. C[n+]1c(-c2cccc(C(=O)NCCCCCC(=O)NC(CCCN=C(N)N)C(=O)O)c2)c2cc(N)ccc2c2ccc(N)cc21.[Cl-] (configuration not stated)
2. C[n+]1c(-c2cccc(C(=O)O)c2)c2cc(N)ccc2c2ccc(N)cc21
3. COC(=O)C(CCCN=C(N)N)NC(=O)CCCCCNC(=O)c1cccc(-c2c3cc(N)ccc3c3ccc(N)cc3[n+]2C)c1 (configuration not stated)

1: > 100 µM; 2: 44 µM; 3: > 100 µM

* * *

System: CEM-SS
Test: Anti-HIV-1 activity against CEM-SS cell lines
Format: functional, cell-based
Conditions: Homo sapiens
experimental.endpoint: IC50

Consider the worked cases shown below.
molecule: C[n+]1c(-c2cccc(C(=O)NCCC(=O)NC(CCCN=C(N)N)C(=O)O)c2)c2cc(N)ccc2c2ccc(N)cc21 (stereo not drawn)
experimental.endpoint: IC50
value: > 100 µM

molecule: COC(=O)C(CCCN=C(N)N)NC(=O)CCCCCNC(=O)c1cccc(-c2c3cc(N)ccc3c3ccc(N)cc3[n+]2C)c1 (stereo not drawn)
experimental.endpoint: IC50
value: > 100 µM

State measured IC50 of the molecule C[n+]1c(-c2cccc(C(=O)NCCCCCC(=O)NC(CCCN=C(N)N)C(=O)O)c2)c2cc(N)ccc2c2ccc(N)cc21.[Cl-] (stereo not drawn) with CEM-SS.
> 100 µM
